subjectOfTest: human RORγt LBD (Homo sapiens, UniProt P51449)
Construct: expressed in transfected cells
Sequence (P51449 258-518): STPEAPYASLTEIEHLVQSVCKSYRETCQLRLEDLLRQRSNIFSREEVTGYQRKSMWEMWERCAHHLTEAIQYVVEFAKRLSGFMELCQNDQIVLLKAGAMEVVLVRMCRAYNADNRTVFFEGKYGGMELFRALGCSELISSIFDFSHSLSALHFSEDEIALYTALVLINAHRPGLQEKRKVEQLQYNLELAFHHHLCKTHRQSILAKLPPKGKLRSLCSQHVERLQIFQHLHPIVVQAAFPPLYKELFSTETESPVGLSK
methodDescription: RORγt reporter assay (GAL4-RORγt LBD luciferase in HEK293T cells)
Format: cell-based
measurementConditions: HEK-293T, read-out: RORγt reporter Assay, % inhibition @ 6 μM, HEK293T cells, 6 μM compound
Hi, to clarify the labels: fulfilled covers inhibition at 6 µM from 90% upward, not fulfilled covers anything below 90%.

Example results:
CC(C)Oc1nc2ccc(C(O)(c3ccncc3)c3cncn3C)cc2c(Cl)c1-c1ccccc1 (centres unmarked) ... fulfilled
CN(C)c1nc2ccc(C(O)(c3cccnc3)c3cncn3C)cc2c(Cl)c1-c1ccccc1 (centres unmarked) ... fulfilled
COc1ccc(C(O)(c2ccc3nc(Cl)c(-c4ccccc4)c(Cl)c3c2)c2cc(C)no2)cn1 (centres unmarked) ... fulfilled
Cn1cncc1C(O)(c1ccncc1)c1ccc2nc(N3CCN(c4ccccc4)CC3)c(-c3ccccc3)c(Cl)c2c1 (centres unmarked) ... not fulfilled

Check the entry Cc1ccc(C(O)(c2cccc(F)c2)c2ccc3nc(Cl)c(-c4ccccc4)c(Cl)c3c2)cn1 (centres unmarked) : does inhibition at 6 µM equal or exceed 90%?
fulfilled

Please do the same for OC(c1cccnc1)(c1cccc(Cl)c1)c1ccc2nc(Cl)c(-c3ccccc3)c(Cl)c2c1 (centres unmarked) as well.
fulfilled

Similarly, OC(c1ccc(Cl)nc1)(c1cccc(F)c1)c1ccc2ncc(-c3ccccc3)c(Cl)c2c1 (centres unmarked) ?
not fulfilled

----------
subjectOfTest: human RORγt LBD (Homo sapiens)
methodDescription: RORγt reporter assay (GAL4-RORγt LBD luciferase in HEK293T cells)
measurementConditions: HEK293T cells, 24 hours compound treatment
Recorded IC50 split into classes bottom range = under 100 nM, center range = from 100 nM up to 400 nM, top range = 400 nM and over

COc1ccc(C(O)(c2ccc3nc(Cl)c(-c4ccccc4)c(Cl)c3c2)c2cncn2C)cn1 (centres unmarked) ... center range
Cn1cncc1C(O)(c1ccc(Cl)cc1)c1ccc2nc(Cl)c(-c3ccccc3)c(Cl)c2c1F (centres unmarked) ... top range
Cc1ccc(C(O)(c2cccc(F)c2)c2ccc3nc(Cl)c(-c4ccccc4)c(Cl)c3c2)cn1 (centres unmarked) ... bottom range

Category of Cn1cncc1C(O)(c1ccc2nc(C(F)(F)F)c(-c3ccccc3)c(C(F)(F)F)c2c1)c1ccccn1 (single isomer, unassigned) [Example 185b] :
center range

Next: Cc1cc(C(O)(c2ccc3nc(Cl)c(-c4ccccc4)c(Cl)c3c2)c2cncn2C)on1 (centres unmarked)
bottom range

Okay, and COc1nc2c(C)cc(C(O)(c3ccc(C(F)(F)F)nc3)c3cncn3C)cc2c(Cl)c1-c1ccc(OC(F)(F)F)cc1 (racemic) [Example 183a] ?
top range

// same read-out, input: CCN(CC)c1nc2ccc(C(O)(c3cccnc3)c3cccc(Cl)c3)cc2c(C)c1-c1ccccc1 (centres unmarked)
top range

Do the same for CN1CCCC(C(O)(c2cccnc2)c2ccc3nc(Cl)c(-c4ccccc4)c(Cl)c3c2)C1 (centres unmarked) please
top range

Okay, and Cc1cc(C(O)(c2ccc(C(F)(F)F)nc2)c2cncn2C)cc2c(C#N)c(-c3ccc(F)cc3)c(C#N)nc12 (single isomer, unassigned) [Example 184c] ?
center range

Also, Cc1cc(C(O)(c2ccc(F)cc2)c2cncn2C)cc2c(C#N)c(-c3cccc(F)c3)c(C#N)nc12 (single isomer, unassigned) [Example 175c] please.
center range

Next: Cc1ccc(C(O)(c2ccc3nc(Cl)c(-c4ccccc4)c(Cl)c3c2)c2cncn2C)c(C)n1 (centres unmarked)
bottom range
